# key: entry, value: % inhibition, POST control
Tested on: low pH BHA
Experiment: SPA POST control (nonspecific quenching)
Set-up: species or system C22 / X31 influenza virus (H3N2)
Details: log conc -3 (M)
EXPERIMENTAL_READOUT: % inhibition, POST control (%)

{"MOLECULE": "O=C1C=CC(=O)c2ccccc21", "EXPERIMENTAL_READOUT": "% inhibition, POST control", "RECORDED_MEASUREMENT": 68.2}
{"MOLECULE": "Oc1ccc(O)c2c1C1CCC2C1 [Compound 111, 3',6'-dihydroxybenzonorbornane]", "EXPERIMENTAL_READOUT": "% inhibition, POST control", "RECORDED_MEASUREMENT": 13.3}
{"MOLECULE": "O=C1C=CC(=O)C2C3C=CC(C3)C12 (stereo not drawn) [Compound 83K]", "EXPERIMENTAL_READOUT": "% inhibition, POST control", "RECORDED_MEASUREMENT": -5.3}
{"MOLECULE": "O=C(O)C1C=CCC2C(=O)C=CC(=O)C12 (stereo not drawn)", "EXPERIMENTAL_READOUT": "% inhibition, POST control", "RECORDED_MEASUREMENT": 54.5}
{"MOLECULE": "Oc1ccc(O)c2c1C1C=CC2C1 [Compound 83A]", "EXPERIMENTAL_READOUT": "% inhibition, POST control", "RECORDED_MEASUREMENT": 0.5}
{"MOLECULE": "CC(C)(C)c1cc(O)ccc1O [Compound 117, tert-butylhydroquinone]", "EXPERIMENTAL_READOUT": "% inhibition, POST control", "RECORDED_MEASUREMENT": -3.4}
